B1: CPEB3 Ribozyme (parent)
chain: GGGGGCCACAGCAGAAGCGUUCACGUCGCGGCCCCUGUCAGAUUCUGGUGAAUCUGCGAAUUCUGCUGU

- Variants of: B1
- assay-protocol: self-cleavage, relative activity (ratio to wild type); higher = more cleavage; co-transcriptional
reported-metric: self-cleavage

{"columns": ["input-sequence", "self-cleavage"],
 "data": [
  ["GGGGGCAACAGCAGAAGCGUUCACGUCGCGGCCCCUGUCAGAUUCUGGUGAAUCUUCGAAUUCUGCUGU [C7A G56U]", 0.357],
  ["GGGGGCCACAGCAGAAGCGUUCACGUCGCGGCCCCUGUCAGAUUCUGGUGAAUCUGCUAAUUCUACUGU [G58U G65A]", 0.961],
  ["GGGGGCCACAGCAGAAGCGUUCACGUCGCGGCGCCUGCCAGAUUCUGGUGAAUCUGCGAAUUCUGCUGU [C33G U38C]", 0.45]
]}

Entry GGGGGCUACAGCAGAAGCGUUCACGUCGCGGCCCCUGUCAGAUUCUGGUGAAUCUGCGAAGUCUGCUGU [C7U U61G] : reported self-cleavage = ?
0.714

Entry GGGGGUCACAGCAGAAGCGUUCGCGUCGCGGCCCCUGUCAGAUUCUGGUGAAUCUGCGAAUUCUGCUGU [C6U A23G] : reported self-cleavage = ?
1.03

Entry GGGGGCCACAGCAGAAGCGUUCACAUCGCGGCCCCUGUCAGAUUCUGCUGAAUCUGCGAAUUCUGCUGU [G25A G48C] : reported self-cleavage = ?
0.218

Entry GGGGCCCACAGCAGAGGCGUUCACGUCGCGGCCCCUGUCAGAUUCUGGUGAAUCUGCGAAUUCUGCUGU [G5C A16G] : reported self-cleavage = ?
0.205
